Recorded measurements of LC retention time, one per entry
- experiment-summary: RP, Waters ACQUITY UPLC BEH C18, 100 × 1 mm, 1.7 µm, 50 °C, 0.3 mL/min, estimated dead time 0.17 min; A: water + 10 mM ammonium bicarbonate; B: 10% water + 90% methanol + 10 mM ammonium bicarbonate; gradient (min/%B) 0/0 15/100 21/100 22/0 30/0
- experimental-context: stereoisomer not certain

{"compound": "O=C1CC=Cc2ncc3ccccc3c21", "LC retention time": "13.2 min"}
{"compound": "COc1ccc(Cc2nccc3cc(OC)c(OC)cc23)cc1OC", "LC retention time": "13.3 min"}
{"compound": "Cn1cnc2c1c(=O)n(CCCC(=O)O)c(=O)n2C", "LC retention time": "6.58 min"}
{"compound": "CNC(C)C(O)c1ccccc1 (centres undefined)", "LC retention time": "13.1 min"}
{"compound": "O=C(Nc1ccc(Cl)cc1C(O)c1ccccc1)c1ccncc1 (centres undefined) [Inabenfide]", "LC retention time": "14.2 min"}
{"compound": "CNCCCC12CCC(c3ccccc31)c1ccccc12", "LC retention time": "15.4 min"}
{"compound": "CCNc1ccccc1", "LC retention time": "12.2 min"}
{"compound": "CC1CCCC(=O)CCCC=Cc2cc(O)cc(O)c2C(=O)O1 (centres undefined)", "LC retention time": "14.1 min"}
{"compound": "CNC(=O)Nc1ccc(Cl)c(Cl)c1", "LC retention time": "13 min"}
{"compound": "CC1CCC2(NC1)OC1CC3C4CC=C5CC(O)CCC5(C)C4CCC3(C)C1C2C (centres undefined)", "LC retention time": "18 min"}
{"compound": "COC(=O)c1ccccc1S(N)(=O)=O [Methyl 2-(aminosulfonyl)benzoate]", "LC retention time": "8.1 min"}
{"compound": "Oc1ccc(Cc2ccc(O)cc2)cc1", "LC retention time": "11.9 min"}
{"compound": "CC1CC2C3CC(F)C4=CC(=O)C=CC4(C)C3C(O)CC2(C)C1(O)C(=O)CO (centres undefined)", "LC retention time": "13.5 min"}
{"compound": "CCN(CC)C(=O)C(C)Oc1cccc2ccccc12 (centres undefined) [Napropamide]", "LC retention time": "15.1 min"}
{"compound": "CN(C(=O)COc1nc2ccccc2s1)c1ccccc1", "LC retention time": "14.9 min"}
{"compound": "Clc1ccc(COC(Cn2ccnc2)c2ccc(Cl)cc2Cl)c(Cl)c1 (centres undefined)", "LC retention time": "18 min"}
{"compound": "CN1C(=O)CC(C)(c2ccccc2)C1=O (centres undefined) [Methsuximide]", "LC retention time": "11.4 min"}
{"compound": "CCN1CCN(c2cc3c(cc2F)c(=O)c(C(=O)O)cn3C2CC2)CC1", "LC retention time": "11.4 min"}
{"compound": "O=C1NC2C(=CC(O)C(O)C2O)c2cc3c(c(O)c21)OCO3 (centres undefined)", "LC retention time": "7.93 min"}

---

- experiment-summary: RP, Waters ACQUITY UPLC BEH C18, 100 × 1 mm, 1.7 µm, 50 °C, 0.3 mL/min, estimated dead time 0.17 min; A: water + 0.1% formic acid + 20 mM ammonium formate; B: methanol + 0.1% formic acid + 20 mM ammonium formate; gradient (min/%B) 0/0 15/100 21/100 22/0 30/0
- experimental-context: stereoisomer not certain
Rule: T for LC retention time not less than 8 min, F for anything less.

{"molecule": "CCOC(=O)C1(c2ccccc2)CCC=CC1N(C)C (stereo not given)", "class-name": "T"}
{"molecule": "CN(C)C(=O)C(CCN1CCC(O)(c2ccc(Cl)cc2)CC1)(c1ccccc1)c1ccccc1 [Loperamide]", "class-name": "T"}
{"molecule": "COCCOCCOCCOC", "class-name": "T"}
{"molecule": "O=C(O)c1cc(=O)c2cccc(O)c2[nH]1", "class-name": "F"}
{"molecule": "COc1ccc2c(c1)OC(O)C(=O)N2O (stereo not given)", "class-name": "T"}
